Origin of values: patent US11407742B2

- System: Mycobacterium avium JCM 15430 strain
- test_description: Antibacterial activity against Mycobacterium avium complex, broth microdilution MIC (Test II-1)
- Assay type: cell-based
- experimental_setup: JCM15430, 37° C. for 120 hours, MTT, minimum concentration inhibiting growth of 90% or more
value_kind: MIC (µg/mL)
Unit µg/mL implied. Number only.

### Prompt Entry CC[C@@H](CO)NCCN[C@@H](CC)CO [Ethambutol, reference compound] needs its MIC filled in; supply it.
### Response 12.5

### Prompt Entry CC(C)=CC(=O)Nc1ccn(C2CCC(OC3OC(C)C(N(C)C)C(O)C3O)C(C)O2)c(=O)n1 (stereo not shown) needs its MIC filled in; supply it.
### Response 0.78

### Prompt Entry CC1OC(n2ccc(NC(=O)c3ccc(N4C(=O)C(C)(CO)NC4(C)C)cc3)nc2=O)CCC1OC1OC(C)C(N(C)C)C(O)C1O (stereo not shown) needs its MIC filled in; supply it.
### Response 12.5

### Prompt Entry CC(C)C(=O)Nc1ccc(C(=O)Nc2ccn(C3CCC(OC4OC(C)C(N(C)C)C(O)C4O)C(C)O3)c(=O)n2)cc1 (stereo not shown) needs its MIC filled in; supply it.
### Response 12.5

### Prompt Entry CCC(C)/C=C/C(=O)Nc1ccn(C2CCC(OC3OC(C)C(N(C)C)C(O)C3O)C(C)O2)c(=O)n1 (stereo not shown) needs its MIC filled in; supply it.
### Response 6.25

### Prompt Entry CC(C)/C=C/C(=O)Nc1ccn(C2CCC(OC3OC(C)C(N(C)C)C(O)C3O)C(C)O2)c(=O)n1 (stereo not shown) needs its MIC filled in; supply it.
### Response 3.12

### Prompt Entry CC(C)CC(=O)Nc1ccn(C2CCC(OC3OC(C)C(N(C)C)C(O)C3O)C(C)O2)c(=O)n1 (stereo not shown) needs its MIC filled in; supply it.
### Response 25
